- experimental_target: T1, CTLA4-ECD_Fc, soluble hCTLA4 comprising the extracellular domain of hCTLA4 fused to an Fc fragment (human, UniProt P16410 36-161)
- T1 construct: extracellular domain; not shown: Fc fragment
- T1 sequence (P16410 36-161): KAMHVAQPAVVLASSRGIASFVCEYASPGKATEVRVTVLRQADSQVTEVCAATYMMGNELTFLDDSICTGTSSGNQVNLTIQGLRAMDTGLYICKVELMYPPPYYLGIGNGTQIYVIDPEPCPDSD
- assay_name: flow cytometry; inhibition of CTLA4-ECD_Fc binding to Raji cells (hB7-1/hB7-2)
List of pIC50 values.
# pIC50: negative log10 of molar concentration; output just the value

anti-hCTLA4 antibody 7A4 (antibody, human IgG1, V domains shown) VH: QVQLVESGGGVVEPGRSLRLSCTASGFTFSSYGMHWVRQAPGKGLEWVAVIWYQTSEKDYADSAKGRFTISRDNSKNTLYLQMNSLRAEDTAVYYCARAGLLGYFDYWGQGTLVTVSS VL: EIVLTQSPGTLSLSPGERATLSCRASQSVSSYLAWYQQKPGQAPRPLIYGVSSRATGIPDRFSGSGSGTDFTLTISRLEPEDFAVYYCQQYGMYPFTFGPGTKVDIK; 7.70
anti-hCTLA4 antibody 4H1 (antibody, human IgG1, V domains shown) VH: QVQLVESGGGVVEPGRSLRLSCTASGFTFSSYGMHWVRQAPGKGLEWVAVIWYNPSKKDYADSAKGRFTISRDNSKNTLYLQMNSLRAEDTAVYYCARGGLFGYFDYWGQGTLVTVSS VL: EIVLTQSPGTLSLSPGERATLSCRASQSVSSYLAWYQQKPGQAPRPLIYGVSSRATGIPDRFSGSGSGTDFTLTISRLEPEDFAVYYCQQYGMYPFTFGPGTKVDIK; 8.09

Proceeding to the next binder to report its pIC50.
Q: Name the recorded pIC50 of the item anti-hCTLA4 antibody 12G4 (antibody, human IgG1, V domains shown) VH: QVQLVESGGGVVEPGRSLRLSCAASGFTFSSYGMHWVRQAPGKGLEWVAVIWYNTSKKDYADSAKGRFTISRDNSKNTLYLQMNSLRAEDTAVYYCARGGLLGYFDYWGQGTLVTVSS VL: EIVLTQSPGTLSLSPGERATLSCRASQSITSYLAWYQQKPGQAPRPLIYGVSSRATGIPDRFSGSGSGTDFTLTISRLEPEDFAVYYCQQYGRYPFTFGPGTKVDIK in your answer.
Ans: 8.46
